Would you kindly list # Sites in PHH (off-target integration sites detected) for each of these molecules?
test system: potential off-target genomic sites; assay: Off-target analysis by oligo insertion based assay in primary human hepatocytes (sgRNAs); format: cell-based; details: 100 ng Cas9 mRNA, 25 nM sgRNA, 12.5 nM donor oligo, 48 h
Strand notation (5' to 3'): a small letter for the sugar, then the base; units joined by * are phosphorothioate-linked, units joined directly phosphodiester-linked; [ ] holds rarer units or linkages, { } end groups; capitals alone tell only the bases. m = 2'-O-methyl; r = 2'-OH (RNA)

G000499: TTR sgRNA modified sequence, Human, SEQ ID NO: 106; guide sequence of CR005303 (nucleic acid) guide: mU*mG*mA*rArUrCrCrArArGrUrGrUrCrCrUrCrUrGrArGrUrUrUrUrArGrAmGmCmUmAmGmAmAmAmUmAmGmCrArArGrUrUrArArArArUrArArGrGrCrUrArGrUrCrCrGrUrUrArUrCrAmAmCmUmUmGmAmAmAmAmAmGmUmGmGmCmAmCmCmGmAmGmUmCmGmGmUmGmCmU*mU*mU*mU
1
G000570: TTR sgRNA modified sequence, Human, SEQ ID NO: 111; guide sequence of CR003347 (nucleic acid) guide: mC*mA*mU*rUrGrArUrGrGrCrArGrGrArCrUrGrCrCrUrGrUrUrUrUrArGrAmGmCmUmAmGmAmAmAmUmAmGmCrArArGrUrUrArArArArUrArArGrGrCrUrArGrUrCrCrGrUrUrArUrCrAmAmCmUmUmGmAmAmAmAmAmGmUmGmGmCmAmCmCmGmAmGmUmCmGmGmUmGmCmU*mU*mU*mU
1
G000490: TTR sgRNA modified sequence, Human, SEQ ID NO: 97; guide sequence of CR003366 (nucleic acid) guide: mA*mA*mA*rUrArGrArCrArCrCrArArArUrCrUrUrArCrGrUrUrUrUrArGrAmGmCmUmAmGmAmAmAmUmAmGmCrArArGrUrUrArArArArUrArArGrGrCrUrArGrUrCrCrGrUrUrArUrCrAmAmCmUmUmGmAmAmAmAmAmGmUmGmGmCmAmCmCmGmAmGmUmCmGmGmUmGmCmU*mU*mU*mU
0
G000494: TTR sgRNA modified sequence, Human, SEQ ID NO: 101; guide sequence of CR003360 (nucleic acid) guide: mG*mU*mG*rArGrUrCrUrGrGrArGrArGrCrUrGrCrArUrGrUrUrUrUrArGrAmGmCmUmAmGmAmAmAmUmAmGmCrArArGrUrUrArArArArUrArArGrGrCrUrArGrUrCrCrGrUrUrArUrCrAmAmCmUmUmGmAmAmAmAmAmGmUmGmGmCmAmCmCmGmAmGmUmCmGmGmUmGmCmU*mU*mU*mU
0
G000567: TTR sgRNA modified sequence, Human, SEQ ID NO: 109; guide sequence of CR003352 (nucleic acid) guide: mG*mA*mA*rArGrGrCrUrGrCrUrGrArUrGrArCrArCrCrGrUrUrUrUrArGrAmGmCmUmAmGmAmAmAmUmAmGmCrArArGrUrUrArArArArUrArArGrGrCrUrArGrUrCrCrGrUrUrArUrCrAmAmCmUmUmGmAmAmAmAmAmGmUmGmGmCmAmCmCmGmAmGmUmCmGmGmUmGmCmU*mU*mU*mU
0

Kindly give each listed record's # Sites in PHH (off-target integration sites detected).
1. G000493: TTR sgRNA modified sequence, Human, SEQ ID NO: 100; guide sequence of CR003368 (nucleic acid) guide: mA*mA*mG*rUrGrCrCrUrUrCrCrArGrUrArArGrArUrUrGrUrUrUrUrArGrAmGmCmUmAmGmAmAmAmUmAmGmCrArArGrUrUrArArArArUrArArGrGrCrUrArGrUrCrCrGrUrUrArUrCrAmAmCmUmUmGmAmAmAmAmAmGmUmGmGmCmAmCmCmGmAmGmUmCmGmGmUmGmCmU*mU*mU*mU
2. G000489: TTR sgRNA modified sequence, Human, SEQ ID NO: 96; guide sequence of CR003344 (nucleic acid) guide: mU*mU*mU*rGrArCrCrArUrCrArGrArGrGrArCrArCrUrGrUrUrUrUrArGrAmGmCmUmAmGmAmAmAmUmAmGmCrArArGrUrUrArArArArUrArArGrGrCrUrArGrUrCrCrGrUrUrArUrCrAmAmCmUmUmGmAmAmAmAmAmGmUmGmGmCmAmCmCmGmAmGmUmCmGmGmUmGmCmU*mU*mU*mU
3. G000483: TTR sgRNA modified sequence, Human, SEQ ID NO: 90; guide sequence of CR005298 (nucleic acid) guide: mU*mC*mC*rArCrUrCrArUrUrCrUrUrGrGrCrArGrGrArGrUrUrUrUrArGrAmGmCmUmAmGmAmAmAmUmAmGmCrArArGrUrUrArArArArUrArArGrGrCrUrArGrUrCrCrGrUrUrArUrCrAmAmCmUmUmGmAmAmAmAmAmGmUmGmGmCmAmCmCmGmAmGmUmCmGmGmUmGmCmU*mU*mU*mU
4. G000495: TTR sgRNA modified sequence, Human, SEQ ID NO: 102; guide sequence of CR003343 (nucleic acid) guide: mC*mA*mG*rArGrGrArCrArCrUrUrGrGrArUrUrCrArCrGrUrUrUrUrArGrAmGmCmUmAmGmAmAmAmUmAmGmCrArArGrUrUrArArArArUrArArGrGrCrUrArGrUrCrCrGrUrUrArUrCrAmAmCmUmUmGmAmAmAmAmAmGmUmGmGmCmAmCmCmGmAmGmUmCmGmGmUmGmCmU*mU*mU*mU
5. G000496: TTR sgRNA modified sequence, Human, SEQ ID NO: 103; guide sequence of CR005304 (nucleic acid) guide: mG*mG*mC*rCrGrUrGrCrArUrGrUrGrUrUrCrArGrArArGrUrUrUrUrArGrAmGmCmUmAmGmAmAmAmUmAmGmCrArArGrUrUrArArArArUrArArGrGrCrUrArGrUrCrCrGrUrUrArUrCrAmAmCmUmUmGmAmAmAmAmAmGmUmGmGmCmAmCmCmGmAmGmUmCmGmGmUmGmCmU*mU*mU*mU
6. G000485: TTR sgRNA modified sequence, Human, SEQ ID NO: 92; guide sequence of CR003336 (nucleic acid) guide: mC*mC*mU*rCrCrUrCrUrGrCrCrUrUrGrCrUrGrGrArCrGrUrUrUrUrArGrAmGmCmUmAmGmAmAmAmUmAmGmCrArArGrUrUrArArArArUrArArGrGrCrUrArGrUrCrCrGrUrUrArUrCrAmAmCmUmUmGmAmAmAmAmAmGmUmGmGmCmAmCmCmGmAmGmUmCmGmGmUmGmCmU*mU*mU*mU

[out]
1
2
0
1
0
3
